The reported measurements were obtained from the supplement of paper PMC7125110.

B1: glmS ribozyme (parent)
chain: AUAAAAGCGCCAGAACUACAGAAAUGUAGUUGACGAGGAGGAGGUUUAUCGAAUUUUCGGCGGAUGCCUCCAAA

Variants of: B1
PROTOCOL TEXT: self-cleavage kobs at 40 uM GlcN6P; higher = faster cleavage; RNA array
APPLIED CONDITIONS: with glucosamine-6-phosphate
Variants at the floor of the assay were thinned out.
MEASUREMENT KIND: self-cleavage kobs at 40 uM GlcN6P (s⁻¹)
Field: numeric (s⁻¹). Do not append units.

Known self-cleavage kobs at 40 uM GlcN6P results, listed for orientation:
MUTATION NAME	self-cleavage kobs at 40 uM GlcN6P, s⁻¹
C8U A15G G38U C61G C68G	0.00048
C10G C50G	5.37e-05
G40A G66A	0.000144
G35A A36U G37U A39G U54C C68U	5.13e-05
A39U G66C	5.39e-05
U30A U54G	0.000119

Query string: Tell me the measured self-cleavage kobs at 40 uM GlcN6P of G40C G66A , please.
Result string: 9.75e-05

Query string: Also, A15G U55A please.
Result string: 0.000962

Query string: Let us now turn to G29C A53G
Result string: 4.79e-05

Query string: Another variant: A15U G29C
Result string: 4.56e-05
